The measurements presented in this section are drawn from patent US20230279016A1.

- Tested on: NCI-H2052 mesothelioma cell line
- assay.summary: Mesothelioma cell line proliferation assay, NCI-H2052
- Format: cell-based
- condition.context: Homo sapiens, NCI-H2052, 144 h, NCI-H2052, 6 days with compound, cell viability by ATPlite

# molecule, target.or.test.system, EC50
measured = [
    ("C=CC(=O)NCC1Cc2c(cnn2Cc2cccc(C(N)=O)c2)N(c2ccc(C(F)(F)F)cc2)C1 (centres unmarked)", "NCI-H2052 mesothelioma cell line", "< 1 µM"),
    ("C=CC(=O)NCC1CN(c2ccc(C(C)C)cc2)c2ccnn2C1 (centres unmarked)", "NCI-H2052 mesothelioma cell line", "< 1 µM"),
    ("O=C1NCCC12CN(c1ccc(C(F)(F)F)cc1)c1ccnn1C2 (centres unmarked)", "NCI-H2052 mesothelioma cell line", "> 10 µM"),
    ("C=CC(=O)NCC1CN(c2ccc(C(F)(F)F)nc2)c2ccnn2C1 (centres unmarked)", "NCI-H2052 mesothelioma cell line", "> 10 µM"),
    ("C=CC(=O)NCC1Cc2nn(C)cc2N(c2ccc(OC(F)(F)F)cc2)C1 (centres unmarked)", "NCI-H2052 mesothelioma cell line", "< 1 µM"),
]
